# Test system: MDA-MB-435
# TEST_METHOD_NOTES: NCI tumour cell line growth inhibition, 48 h
Activity calls are given as the source filed them. No stated cut-off is given here; in the data, active = GI50 up to about 1.1 µM and inactive = higher.
For each of the molecules below, state its GI50.

Enquiry: Output GI50 of Cc1ccc(S(=O)(=O)N/N=C2\CCCCCCCCCCC2CN(C)C)cc1 (centres undefined)
Return: 14.7 µM (inactive)

Enquiry: Identify measured GI50 associated with N#Cc1c2c(c(Nc3cccc(C(F)(F)F)c3)n3c1nc1ccccc13)CCCC2
Return: 28.4 µM (inactive)

Enquiry: Report GI50 for O=C(O)c1c(Br)c(Br)c(Br)c(Br)c1C1c2ccc(O)cc2Oc2cc(O)ccc21
Return: > 100 µM (inactive)

Enquiry: Give GI50 for O=c1c2ncn(COCCCl)c2n(-c2ccccc2)c(=S)n1-c1ccccc1
Return: > 100 µM (inactive)

Enquiry: Note down GI50 recorded for CC(C)(CCCCC(C)(C)[N+](C)(C)C)[N+](C)(C)C
Return: > 100 µM (inactive)

Enquiry: In one line, give reported GI50 of the entry Brc1cccc(C2ON=C(c3ccccc3)N2C23CC4CC(CC(C4)C2)C3)c1 (centres undefined) .
Return: > 10 µM (inactive)

Enquiry: Please give the documented GI50 of CN(C)Cc1cc(C(F)(F)F)ccc1C(O)(c1ccccc1)c1ccccc1
Return: 18.8 µM (inactive)

Enquiry: Specify GI50 for CCCCCCCC(=O)NC(C)(C)C(=O)NCC(=O)NC(CC(C)C)C(=O)NC(C)(C)C(=O)NCC(=O)NCC(=O)NC(CC(C)C)C(=O)NC(C)(C)C(=O)NCC(=O)NC(C(=O)NC(CO)CC(C)C)C(C)CC (centres undefined) and stop.
Return: 3.94 µM (inactive)

Enquiry: Consider the molecule Cc1ccc([C@H]2CC(=O)C[C@H](c3ccc(C)cc3)C23C(=O)c2ccccc2C3=O)cc1 . State its measured GI50.
Return: 41.3 µM (inactive)

---

I'd appreciate it if you could supply GI50 values for the items below.
# Tested on: LXFL 529
# TEST_METHOD_NOTES: NCI tumour cell line growth inhibition, 48 h
Activity calls are given as the source filed them. No stated cut-off is given here; in the data, active = GI50 up to about 1.1 µM and inactive = higher.

Enquiry: Output GI50 of O=C(/C=C/c1ccc(Cl)c(Cl)c1)c1ccc2ccccc2c1
Return: > 100 µM (inactive)

Enquiry: Please report the measured GI50 for COC(=O)c1ccc(C=C(C#N)C#N)cc1
Return: 18.3 µM (inactive)

Enquiry: Output GI50 of COc1ccc2nc(NC(=O)C(=O)CC(=O)c3ccc([N+](=O)[O-])cc3)sc2c1
Return: > 100 µM (inactive)

Enquiry: Output measured GI50 for this item: C[N+](C)(C)CCc1ccccc1
Return: > 100 µM (inactive)

Enquiry: Complete the entry with GI50 for CCNc1c(C(=O)N(CC)CC)c(=O)[nH]c2ncccc12
Return: > 100 µM (inactive)

Enquiry: Given the compound CC[C@H]1CC(=O)c2c(cc3c(c2O)C(=O)c2ccccc2C3=O)[C@@]1(C#N)C(=O)OC(C)(C)C , write its reported GI50.
Return: 3.25 µM (inactive)

Enquiry: Supply reported GI50 belonging to this compound: COc1ccc(/C=C(\C(C)=O)C(=O)Nc2ccccc2)cc1
Return: > 100 µM (inactive)

Enquiry: Read the entry COc1cc2c(cc1C)[n+]([O-])c(C)c(C(=O)C/C(=N/NC(=O)C[N+](C)(C)C)C(=O)Nc1cccc(Cl)c1C)[n+]2[O-] and write its reported GI50.
Return: > 100 µM (inactive)
